# test-system: Glucose-6-phosphate dehydrogenase (camel liver G6PD) (Camelus dromedarius, UniProt G1EHI3)
# Construct: native enzyme purified from camel liver (subunit 64 kDa, native 194 kDa)
# Sequence (G1EHI3 entry or part of it): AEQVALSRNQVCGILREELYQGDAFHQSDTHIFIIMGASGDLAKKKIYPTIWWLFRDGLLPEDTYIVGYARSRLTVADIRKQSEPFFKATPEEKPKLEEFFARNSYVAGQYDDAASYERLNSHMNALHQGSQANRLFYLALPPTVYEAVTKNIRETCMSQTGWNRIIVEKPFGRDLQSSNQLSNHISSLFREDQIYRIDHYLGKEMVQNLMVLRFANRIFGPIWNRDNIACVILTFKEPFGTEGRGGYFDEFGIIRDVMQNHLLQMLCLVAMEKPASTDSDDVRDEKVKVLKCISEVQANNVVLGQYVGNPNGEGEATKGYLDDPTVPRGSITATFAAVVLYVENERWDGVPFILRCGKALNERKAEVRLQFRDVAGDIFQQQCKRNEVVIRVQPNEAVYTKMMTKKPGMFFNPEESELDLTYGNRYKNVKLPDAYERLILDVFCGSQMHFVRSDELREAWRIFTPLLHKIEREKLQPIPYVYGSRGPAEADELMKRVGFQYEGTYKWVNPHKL
# assay-notes: enzyme inhibition kinetics of purified enzyme (Lineweaver-Burk, Hill plot, slope replot)
pKi: −log10 of the molar value.
value-type: pKi

# substance-smiles, measured-result
records = [
    ("NC(=O)C1=CN([C@@H]2O[C@H](COP(=O)(O)OP(=O)(O)OC[C@H]3O[C@@H](n4cnc5c(N)ncnc54)[C@H](OP(=O)(O)O)[C@@H]3O)[C@@H](O)[C@H]2O)C=CC1", 4.46),
]

Just for reference, paper PMC4290037 is where these values come from.
